- Tested System: Dbp2 WT (Saccharomyces cerevisiae, UniProt P24783 1-546)
- Sequence (P24783 whole entry): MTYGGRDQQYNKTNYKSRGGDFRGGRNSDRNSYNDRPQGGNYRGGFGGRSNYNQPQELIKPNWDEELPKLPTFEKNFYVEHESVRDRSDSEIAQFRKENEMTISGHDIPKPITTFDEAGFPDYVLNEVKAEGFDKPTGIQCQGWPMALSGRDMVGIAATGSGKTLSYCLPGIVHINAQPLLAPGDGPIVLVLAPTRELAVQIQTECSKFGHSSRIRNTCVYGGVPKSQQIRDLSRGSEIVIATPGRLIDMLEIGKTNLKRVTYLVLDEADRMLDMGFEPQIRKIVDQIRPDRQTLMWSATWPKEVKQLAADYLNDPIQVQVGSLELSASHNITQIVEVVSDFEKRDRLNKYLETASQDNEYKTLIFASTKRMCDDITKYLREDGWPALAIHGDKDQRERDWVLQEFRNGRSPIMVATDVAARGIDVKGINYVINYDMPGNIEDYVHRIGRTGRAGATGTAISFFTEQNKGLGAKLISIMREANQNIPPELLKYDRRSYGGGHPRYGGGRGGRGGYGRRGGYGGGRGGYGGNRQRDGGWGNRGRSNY
- Test: fluorescence anisotropy; Anisotropy: 25 mM Tris-HCl pH 7.5, 20 mM NaCl/30 mM KCl, 2 mM MgCl2, 1 mM DTT, 5 nM labelled nucleic acid, 25 C, 5 min; EMSA: 25 mM Tris-HCl pH 7.5, 30 mM KCl
- Protocol Conditions: protein: recombinant; tags: His6-MBP removed by TEV; label: 3' FAM on DNA strand; blunt
Result Type: Kd (nM)

Binder: R/D-D12 (DNA:RNA) RNA: CGUCGAGCAGAG DNA: CTCTGCTCGACG
Value Unit: nM
Readout Value: 73.9

Binder: R/D-D16 (DNA:RNA) RNA: GAUCGUGACAUCCUUA DNA: TAAGGATGTCACGATC
Value Unit: nM
Readout Value: 40.6
